# protocol.text: Clearance in C57BL/6 mouse at 2 mg/kg, iv measured upto 8 hrs by LC-MS/MS analysis
# Format: ADME, organism-based
# conditions: in vivo
assay.metric: clearance
Your reply should be a number followed by the unit it is expressed in.

Lookup result for `CN1Cc2nn(C)c(C#N)c2-c2cnc3[nH]c(F)c(c3c2)-c2cn(nc2C(F)(F)F)CCCC1=O` ; measured clearance: 5.9 mL/min/kg

* * *

# System: CAL-27
# protocol.text: Induction of apoptosis in human CAL-27 cells assessed as BCL-xL level at 1 uM after 24 hrs by Immunoblot analysis relative to control
# Format: functional
# note: boundary value 80% maps to -1; Activity below it maps to 1

Example entries begin here.
>  <molecule.smiles>
COc1c2c(nn1C)CN(C(C)C)C(=O)CCCn1cc(c(C(F)(F)F)n1)-c1c[nH]c3ncc-2cc13

>  <classification>
-1

$$$$
>  <molecule.smiles>
CN1Cc2nn(C)c(C#N)c2-c2cnc3[nH]c(F)c(c3c2)-c2cn(nc2C(F)(F)F)CCCC1=O

>  <classification>
1

$$$$
>  <molecule.smiles>
COc1ccc2c(c1)[nH]c1c(C)nccc12

>  <classification>
-1

$$$$

Kindly review the next compound as well.
Does the reported Activity of the following compound sit strictly below 80%? `Cc1[nH]c2ncc3cc2c1-c1cn(nc1C(F)(F)F)CCCC(=O)N(C)Cc1nn(C)c(C#N)c1-3` -1

* * *

The following molecules are shown together with reported Activity values.
# System: CAL-27
# protocol.text: Induction of apoptosis in human CAL-27 cells assessed as increase in cleaved-PARP level at 10 uM after 24 hrs by Immunoblot analysis relative to control
# Format: functional
Reply numerically in %, unit not repeated.

Examples from the recorded data:
>  <molecule.smiles>
COc1c2c(nn1C)CN(C(C)C)C(=O)CCCn1cc(c(C(F)(F)F)n1)-c1c[nH]c3ncc-2cc13

>  <Activity [%]>
538

$$$$
>  <molecule.smiles>
Cc1[nH]c2ncc3cc2c1-c1cn(nc1C(F)(F)F)CCCC(=O)N(C)Cc1nn(C)c(C#N)c1-3

>  <Activity [%]>
190

$$$$
>  <molecule.smiles>
COc1c2c(nn1C)CN(C(C)C)C(=O)CCCn1cc(c(C(F)(F)F)n1)-c1c(C)[nH]c3ncc-2cc13

>  <Activity [%]>
145

$$$$
>  <molecule.smiles>
COc1ccc2c(c1)[nH]c1c(C)nccc12

>  <Activity [%]>
210

$$$$
>  <molecule.smiles>
O=C(O)c1ccc2c(c1)nc(Nc1cccc(Cl)c1)c1ccncc12

>  <Activity [%]>
871

$$$$

Now look at this one.
Measured Activity (CAL-27), entry `CN1Cc2nn(C)c(C#N)c2-c2cnc3[nH]c(F)c(c3c2)-c2cn(nc2C(F)(F)F)CCCC1=O` : 540

* * *

# measurement.target: Mitogen-activated protein kinase 10 (Homo sapiens)
# Sequence (P53779 whole entry): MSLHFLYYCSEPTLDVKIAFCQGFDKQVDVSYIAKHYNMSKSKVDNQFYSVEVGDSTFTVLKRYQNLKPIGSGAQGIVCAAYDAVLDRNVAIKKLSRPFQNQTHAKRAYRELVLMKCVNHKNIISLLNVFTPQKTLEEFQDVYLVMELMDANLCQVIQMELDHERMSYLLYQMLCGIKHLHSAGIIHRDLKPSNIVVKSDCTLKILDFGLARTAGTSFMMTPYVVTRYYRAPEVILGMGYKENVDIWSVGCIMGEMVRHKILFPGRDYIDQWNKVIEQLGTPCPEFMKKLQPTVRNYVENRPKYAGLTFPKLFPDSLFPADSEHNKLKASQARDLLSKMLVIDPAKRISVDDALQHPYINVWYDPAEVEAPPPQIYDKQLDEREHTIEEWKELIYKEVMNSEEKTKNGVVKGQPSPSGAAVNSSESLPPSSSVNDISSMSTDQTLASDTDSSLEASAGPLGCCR
# protocol.text: Inhibition of JNK3 (unknown origin) in human CAL-27 cells measured after 6 hrs by select screen kinase assay
assay.metric: IC50

Lookup result for `CN1Cc2nn(C)c(C#N)c2-c2cnc3[nH]c(F)c(c3c2)-c2cn(nc2C(F)(F)F)CCCC1=O` ; measured IC50: > 10 µM

* * *

# measurement.target: Dual specificity tyrosine-phosphorylation-regulated kinase 1B (Homo sapiens)
# Sequence (Q9Y463 whole entry): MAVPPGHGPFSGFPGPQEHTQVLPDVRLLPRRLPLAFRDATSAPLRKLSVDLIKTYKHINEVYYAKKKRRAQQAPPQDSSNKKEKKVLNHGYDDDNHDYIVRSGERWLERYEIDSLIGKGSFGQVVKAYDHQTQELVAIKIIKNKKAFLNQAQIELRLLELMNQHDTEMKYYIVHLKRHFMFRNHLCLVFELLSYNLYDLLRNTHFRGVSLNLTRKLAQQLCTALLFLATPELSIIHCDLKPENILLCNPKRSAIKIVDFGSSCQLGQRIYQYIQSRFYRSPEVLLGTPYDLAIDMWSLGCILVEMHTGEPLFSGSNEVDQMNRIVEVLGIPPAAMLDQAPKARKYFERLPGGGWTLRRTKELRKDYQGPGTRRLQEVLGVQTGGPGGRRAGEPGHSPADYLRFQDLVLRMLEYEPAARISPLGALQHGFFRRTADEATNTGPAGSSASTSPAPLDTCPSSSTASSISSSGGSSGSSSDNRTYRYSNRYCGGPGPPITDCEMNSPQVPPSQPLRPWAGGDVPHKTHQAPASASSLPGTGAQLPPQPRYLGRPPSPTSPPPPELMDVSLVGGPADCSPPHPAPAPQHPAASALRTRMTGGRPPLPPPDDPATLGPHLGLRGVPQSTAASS
# protocol.text: Inhibition of DYRK1B (unknown origin) measured after 6 hrs in presence of ATP by Z'-LYTE assay
The following compounds are shown together with reported pIC50 values.
Note on pIC50: it is the negative log10 of concentration, concentration in mol/L.

>  <molecule.smiles>
CN1Cc2nn(C)c(C#N)c2-c2cnc3[nH]nc(c3c2)-c2cn(nc2C(F)(F)F)CCCC1=O

>  <pIC50>
6.03

$$$$
>  <molecule.smiles>
CN1Cc2nn(C)cc2-c2cnc3[nH]cc(c3c2)-c2cnn(c2)CCCCC1=O

>  <pIC50>
6.82

$$$$
>  <molecule.smiles>
CN1Cc2nn(C)c(C#N)c2-c2cnc3[nH]cc(c3n2)-c2cn(nc2C(F)(F)F)CCCC1=O

>  <pIC50>
7.74

$$$$
>  <molecule.smiles>
CN1Cc2nn(C)cc2-c2cnc3[nH]cc(c3c2)-c2cnn(c2)CCCC1=O

>  <pIC50>
7.15

$$$$

Now look at this one.
Lookup result for `CN1Cc2nn(C)c(C#N)c2-c2cc3c(c[nH]c3nn2)-c2cn(nc2C(F)(F)F)CCCC1=O` ; measured pIC50: 5.52

* * *

# measurement.target: Mitogen-activated protein kinase 9 (Homo sapiens, UniProt P45984)
# Sequence (P45984 whole entry): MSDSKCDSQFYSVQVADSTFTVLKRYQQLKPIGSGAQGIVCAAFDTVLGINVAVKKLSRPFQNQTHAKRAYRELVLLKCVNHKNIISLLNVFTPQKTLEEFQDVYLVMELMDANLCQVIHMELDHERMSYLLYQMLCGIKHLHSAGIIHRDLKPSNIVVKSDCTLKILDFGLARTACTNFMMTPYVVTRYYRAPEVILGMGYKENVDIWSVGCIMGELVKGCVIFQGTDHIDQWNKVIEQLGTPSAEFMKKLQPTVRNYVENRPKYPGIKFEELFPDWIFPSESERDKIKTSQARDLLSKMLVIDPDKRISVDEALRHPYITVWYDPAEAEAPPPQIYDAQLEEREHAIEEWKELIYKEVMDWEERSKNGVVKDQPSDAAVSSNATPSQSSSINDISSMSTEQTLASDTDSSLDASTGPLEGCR
# protocol.text: Inhibition of JNK2 (unknown origin) in human CAL-27 cells measured after 6 hrs by select screen kinase assay
assay.metric: IC50 (nM)
Reply numerically in nM, unit not repeated.

Lookup result for `CN1Cc2nn(C)c(C#N)c2-c2cnc3[nH]c(F)c(c3c2)-c2cn(nc2C(F)(F)F)CCCC1=O` ; measured IC50: 1100

* * *

# measurement.target: Misshapen-like kinase 1 (Homo sapiens, UniProt Q8N4C8)
# Sequence (Q8N4C8 whole entry): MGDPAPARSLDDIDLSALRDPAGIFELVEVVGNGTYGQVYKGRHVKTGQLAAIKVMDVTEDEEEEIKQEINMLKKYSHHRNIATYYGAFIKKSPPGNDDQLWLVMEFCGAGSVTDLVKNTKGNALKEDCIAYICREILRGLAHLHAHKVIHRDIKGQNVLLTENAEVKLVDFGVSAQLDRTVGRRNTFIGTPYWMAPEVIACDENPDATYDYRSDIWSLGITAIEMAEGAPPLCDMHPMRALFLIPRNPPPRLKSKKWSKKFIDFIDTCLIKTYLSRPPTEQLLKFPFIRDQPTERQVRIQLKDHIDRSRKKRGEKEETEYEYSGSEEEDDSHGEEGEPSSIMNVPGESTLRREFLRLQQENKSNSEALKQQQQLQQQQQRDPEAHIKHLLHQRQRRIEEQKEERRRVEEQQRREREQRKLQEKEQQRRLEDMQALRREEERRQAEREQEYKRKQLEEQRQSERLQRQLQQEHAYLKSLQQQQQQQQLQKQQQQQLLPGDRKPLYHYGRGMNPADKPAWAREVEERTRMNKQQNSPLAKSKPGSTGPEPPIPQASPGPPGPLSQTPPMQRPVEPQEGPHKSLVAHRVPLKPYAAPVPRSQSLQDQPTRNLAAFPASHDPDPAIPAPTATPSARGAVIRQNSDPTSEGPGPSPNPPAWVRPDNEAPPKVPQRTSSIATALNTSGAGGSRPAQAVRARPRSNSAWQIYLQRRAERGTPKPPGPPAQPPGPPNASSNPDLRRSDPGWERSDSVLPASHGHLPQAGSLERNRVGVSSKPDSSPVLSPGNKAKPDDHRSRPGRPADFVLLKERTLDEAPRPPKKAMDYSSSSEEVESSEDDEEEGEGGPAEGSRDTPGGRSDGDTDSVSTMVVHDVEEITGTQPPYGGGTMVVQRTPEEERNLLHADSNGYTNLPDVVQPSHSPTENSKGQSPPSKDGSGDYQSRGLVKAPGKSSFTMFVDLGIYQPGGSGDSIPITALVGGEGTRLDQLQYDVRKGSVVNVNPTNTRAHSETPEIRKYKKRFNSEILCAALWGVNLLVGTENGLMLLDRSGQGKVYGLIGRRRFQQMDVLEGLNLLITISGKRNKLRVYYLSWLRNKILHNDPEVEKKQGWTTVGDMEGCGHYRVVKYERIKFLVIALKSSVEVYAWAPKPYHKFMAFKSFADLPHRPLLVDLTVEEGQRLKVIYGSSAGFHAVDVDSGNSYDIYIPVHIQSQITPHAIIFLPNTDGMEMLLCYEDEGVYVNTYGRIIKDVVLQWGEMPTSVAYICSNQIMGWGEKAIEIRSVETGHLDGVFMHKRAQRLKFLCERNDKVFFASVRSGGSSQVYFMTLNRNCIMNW
assay.metric: IC50 (nM)
Reply numerically in nM, unit not repeated.

Lookup result for `CN1Cc2nn(C)c(C#N)c2-c2cnc3[nH]c(F)c(c3c2)-c2cn(nc2C(F)(F)F)CCCC1=O` ; measured IC50: 115

* * *

# protocol.text: Half life in C57BL/6 mouse at 5 mg/kg, iv measured upto 8 hrs by LC-MS/MS analysis
# Assay type: ADME, organism-based
# conditions: in vivo
assay.metric: half-life
Your reply should be a number followed by the unit it is expressed in.

Lookup result for `CN1Cc2nn(C)c(C#N)c2-c2cnc3[nH]cc(c3c2)-c2cn(nc2C(F)(F)F)CCCC1=O` ; measured half-life: 18 min

* * *

# System: HEK-293T
# protocol.text: Antiproliferative activity against human HEK293T cells assessed as reduction in cell viability at 10 uM measured after 72 hrs by Celltiter-Glo luminescent assay
# Type: toxicity, cell-based
assay.metric: Activity

>  <molecule.smiles>
COc1ccc2c(c1)[nH]c1c(C)nccc12

>  <reported.result>
Active

$$$$
>  <molecule.smiles>
CN1Cc2nn(C)c(C#N)c2-c2cnc3[nH]c(F)c(c3c2)-c2cn(nc2C(F)(F)F)CCCC1=O

>  <reported.result>
Non-Toxic

$$$$
>  <molecule.smiles>
O=C(O)c1ccc2c(c1)nc(Nc1cccc(Cl)c1)c1ccncc12

>  <reported.result>
Active

$$$$
>  <molecule.smiles>
CN1Cc2nn(C)c(C#N)c2-c2cnc3[nH]cc(c3c2)-c2cn(nc2C(F)(F)F)CCCC1=O

>  <reported.result>
Non-Toxic

$$$$

* * *

The following compounds are shown together with reported Activity values.
# Test system: CAL-27
# protocol.text: Induction of apoptosis in human CAL-27 cells assessed as PARP level at 10 uM after 24 hrs by Immunoblot analysis relative to control
# Format: functional
Your reply should be a number followed by the unit it is expressed in.

Lookup result for O=C(O)c1ccc2c(c1)nc(Nc1cccc(Cl)c1)c1ccncc12 [SILMITASERTIB] ; measured Activity: 137%

Lookup result for `CN1Cc2nn(C)c(C#N)c2-c2cnc3[nH]c(F)c(c3c2)-c2cn(nc2C(F)(F)F)CCCC1=O` ; measured Activity: 93%

Lookup result for COc1ccc2c(c1)[nH]c1c(C)nccc12 [HARMINE] ; measured Activity: 141%

Lookup result for `COc1c2c(nn1C)CN(C(C)C)C(=O)CCCn1cc(c(C(F)(F)F)n1)-c1c[nH]c3ncc-2cc13` ; measured Activity: 112%

Lookup result for `COc1c2c(nn1C)CN(C(C)C)C(=O)CCCn1cc(c(C(F)(F)F)n1)-c1c(C)[nH]c3ncc-2cc13` ; measured Activity: 117%

Lookup result for `Cc1[nH]c2ncc3cc2c1-c1cn(nc1C(F)(F)F)CCCC(=O)N(C)Cc1nn(C)c(C#N)c1-3` ; measured Activity: 134%

* * *

# protocol.text: AUC (0-infinity) in C57BL/6 mouse at 10 mg/kg, po measured upto 8 hrs by LC-MS/MS analysis
# Assay type: ADME, organism-based
# Set-up: route oral, dose 10 mg/kg, time <=8
# conditions: C57BL/6, mouse, in vivo
assay.metric: AUC(0-inf)
Your reply should be a number followed by the unit it is expressed in.

Lookup result for `CN1Cc2nn(C)c(C#N)c2-c2cnc3[nH]c(F)c(c3c2)-c2cn(nc2C(F)(F)F)CCCC1=O` ; measured AUC(0-inf): 5770 ng·h/mL

* * *

# measurement.target: Dual specificity mitogen-activated protein kinase kinase 4 (Homo sapiens, UniProt P45985)
# Sequence (P45985 whole entry): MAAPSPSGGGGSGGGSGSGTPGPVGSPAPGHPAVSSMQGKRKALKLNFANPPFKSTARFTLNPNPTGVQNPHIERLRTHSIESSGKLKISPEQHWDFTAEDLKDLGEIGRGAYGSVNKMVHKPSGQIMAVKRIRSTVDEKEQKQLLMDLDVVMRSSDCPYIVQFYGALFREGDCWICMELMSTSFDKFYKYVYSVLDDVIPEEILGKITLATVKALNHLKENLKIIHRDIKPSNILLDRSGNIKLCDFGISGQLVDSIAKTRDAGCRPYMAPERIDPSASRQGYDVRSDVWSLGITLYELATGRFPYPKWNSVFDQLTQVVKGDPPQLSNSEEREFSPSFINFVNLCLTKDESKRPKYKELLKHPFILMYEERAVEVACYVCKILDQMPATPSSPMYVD
# protocol.text: Inhibition of MEK4 (unknown origin) at 1 uM by kinome scan method
assay.metric: IC50 (nM)
Reply numerically in nM, unit not repeated.

Lookup result for `CN1Cc2nn(C)c(C#N)c2-c2cnc3[nH]c(F)c(c3c2)-c2cn(nc2C(F)(F)F)CCCC1=O` ; measured IC50: 132
